# Experimental Target: T1, Human 1to19 peptide (human)
# T1 construct: First 19 N-terminal amino acids of human CXCR2, captured on neutravidin; also called human CXCR2 1 to19 peptide; 1-19 Nter peptide
# T1 peptide: MEDFNMESDSFEDFWKGED-biotin
# Protocol Summary: ELISA, periplasmic extract on biotinylated peptide
Ends that are not written are not given here.
Below, each entry is listed with its recorded ratio of binding signal relative to blank control.
Give a bare numeral; the unit ratio is implied.

Binder	Numeric Readout
163E3 (VHH, Tested as periplasmic extract (pAX50) and as purified His6-tagged protein (pAX100); also called 163E03; not shown: C-terminal c-myc tag and His6 tag coded by the vector) VHH: EVQLVESGGGLVQPGGSLRLSCVASGRIFSSNAMGWFRQAPGKEREFVAAITWRSGGSAYYADSAKGRFTISRDNAKNTVYLQMNSLKPEDTAVYYCAAGGSSWLSFPPDYWGQGTQVTVSS	0.6

Exercise: If you can, please state the reported ratio of binding signal relative to blank control value of 137B7 (VHH, Tested as periplasmic extract (pAX50) and as purified His6-tagged protein (pAX100); also called 137B07; not shown: C-terminal c-myc tag and His6 tag coded by the vector) VHH: EVQLVESGGGLVQPGGSVRLSCVASGIIFRLSALGWTRQGPGKAREWVAGINSDGTTNYADPVKGRFTISRDNAKNTIYLHMDMLKPEDTAVYYCASGKYRGQGTQVTVSS .
Key: 1
